molecular target: D(2) dopamine receptor (Bos taurus, UniProt P20288); experiment: Binding affinity towards dopamine receptor D2 was determined by displacement of [3H]spiroperidol from bovine nucleus caudate membranes.
Sequence (P20288 whole entry): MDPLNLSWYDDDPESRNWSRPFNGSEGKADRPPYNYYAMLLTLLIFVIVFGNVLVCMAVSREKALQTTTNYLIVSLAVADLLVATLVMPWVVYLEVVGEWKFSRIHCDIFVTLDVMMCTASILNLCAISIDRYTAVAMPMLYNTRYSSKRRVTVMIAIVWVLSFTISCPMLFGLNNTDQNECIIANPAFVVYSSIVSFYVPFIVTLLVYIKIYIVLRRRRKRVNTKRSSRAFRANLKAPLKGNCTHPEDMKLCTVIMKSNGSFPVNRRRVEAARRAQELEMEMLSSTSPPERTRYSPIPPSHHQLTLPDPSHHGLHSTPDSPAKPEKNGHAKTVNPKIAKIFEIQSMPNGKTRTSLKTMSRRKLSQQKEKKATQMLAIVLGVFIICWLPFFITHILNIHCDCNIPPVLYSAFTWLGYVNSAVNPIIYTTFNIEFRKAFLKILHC
Recorded metric: pKi
Keep it numeric: pKi is minus log10 of the concentration in mol/L.

Q) // lookup pKi for Cc1ccc2c(c1)nc(O)n2C1CCN(CC2COc3ccc(Cl)cc3O2)CC1 (stereo unspecified)
A) 7.52

====

target: D(2) dopamine receptor (Bos taurus); experiment: Displacement of [3H]spiroperidol from bovine caudate nucleus membrane Dopamine receptor D2
Recorded metric: Ki (nM)
Return type: number; implicit unit nM.

# example entries with known answers
Cc1cc2c(cc1C)OC(CN1CCC(n3c(O)nc4cc(F)ccc43)CC1)CO2 (stereo unspecified) = 25
Cc1ccc2c(c1)nc(O)n2C1CCN(CC2COc3ccccc3O2)CC1 (stereo unspecified) = 120

Q) Given the compound Cc1ccc2c(c1)OCC(CN1CCC(n3c(O)nc4cc(Cl)ccc43)CC1)O2 (stereo unspecified) , what is its reported Ki?
A) 60

Q) So what does the record say about Ki for O=c1[nH]c2cc(Cl)ccc2n1C1CCN(CC2COc3ccccc3O2)CC1 (stereo unspecified) [AXAMOZIDE] ?
A) 30

Q) Recorded Ki for Cc1cccc2c1OCC(CN1CCC(n3c(O)nc4cc(F)ccc43)CC1)O2 (stereo unspecified) , please?
A) 8

Q) Consider the compound shown here: Cc1ccc2c(c1)nc(O)n2C1CCN(CC2COc3cc(C)c(C)cc3O2)CC1 (stereo unspecified) What is its recorded Ki?
A) 45

Q) Requested read-out: Ki. Entry: Oc1nc2cc(Br)ccc2n1C1CCN(CC2COc3ccccc3O2)CC1 (stereo unspecified)
A) 70

Q) May I ask what Ki has been recorded for Cc1ccc2c(c1)OCC(CN1CCC(n3c(O)nc4cc(C)ccc43)CC1)O2 (stereo unspecified) ?
A) 40

====

test: Therapeutic ratio of ED50 of catalepsy in rats to ED50 of climbing in mouse; type: ADME, organism-based; details: rat and mouse, in vivo
Could you mark each record fulfilled if its selectivity ratio falls strictly under 200, and not fulfilled if it equals or exceeds it?

For orientation, consider the following solved cases.
Cc1ccc2c(c1)nc(O)n2C1CCN(CC2COc3ccccc3O2)CC1 (configuration not stated) = not fulfilled
Cc1ccc2c(c1)nc(O)n2C1CCN(CC2COc3ccc(F)cc3O2)CC1 (configuration not stated) = fulfilled
Oc1nc2cc(Br)ccc2n1C1CCN(CC2COc3ccccc3O2)CC1 (configuration not stated) = not fulfilled
Cc1cc2c(cc1C)OC(CN1CCC(n3c(O)nc4cc(F)ccc43)CC1)CO2 (configuration not stated) = not fulfilled
O=c1[nH]c2cc(Cl)ccc2n1C1CCN(CC2COc3ccccc3O2)CC1 (configuration not stated) [AXAMOZIDE] = not fulfilled
Cc1ccc2c(c1)OCC(CN1CCC(n3c(O)nc4cc(C)ccc43)CC1)O2 (configuration not stated) = fulfilled
O=c1[nH]c2cc(F)ccc2n1C1CCN(CC2COc3cc(F)ccc3O2)CC1 (configuration not stated) = fulfilled
Cc1ccc2c(c1)OCC(CN1CCC(n3c(O)nc4cc(Cl)ccc43)CC1)O2 (configuration not stated) = fulfilled

Q) Hello, is selectivity ratio of the following molecule strictly smaller than 200? COc1ccc2c(c1)nc(O)n2C1CCN(CC2COc3ccccc3O2)CC1 (configuration not stated)
A) fulfilled

Q) Please check: selectivity ratio for Cc1ccc2c(c1)nc(O)n2C1CCN(CC2COc3cc(C)c(C)cc3O2)CC1 (configuration not stated) , strictly under 200 or not?
A) fulfilled

Q) Hello, I'm reviewing records and need to know if selectivity ratio of Cc1cccc2c1OCC(CN1CCC(n3c(O)nc4cc(F)ccc43)CC1)O2 (configuration not stated) is below 200. Could you check?
A) fulfilled

The origin of these recorded values is ChEMBL document CHEMBL1123926.
